# target_or_system: human CCR5 (Homo sapiens)
# Sequence (P51681 whole entry): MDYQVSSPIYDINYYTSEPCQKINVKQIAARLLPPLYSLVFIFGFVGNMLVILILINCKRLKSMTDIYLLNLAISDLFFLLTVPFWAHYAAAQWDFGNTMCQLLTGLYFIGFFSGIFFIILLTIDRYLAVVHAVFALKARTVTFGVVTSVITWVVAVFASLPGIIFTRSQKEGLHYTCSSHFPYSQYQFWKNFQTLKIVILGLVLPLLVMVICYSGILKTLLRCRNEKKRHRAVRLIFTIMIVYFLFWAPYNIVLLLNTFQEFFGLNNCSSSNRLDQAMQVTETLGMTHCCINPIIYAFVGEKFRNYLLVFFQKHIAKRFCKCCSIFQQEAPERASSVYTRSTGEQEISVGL
# run_description: Inhibition of calcium mobilization of hCCR5/CHO cells stimulated with MIP-1α
pIC50: −log10 of the molar value.

{"molecule": "CCCCN1C(=O)C(COC)NC(=O)C12CCN(Cc1ccc(Oc3ccccc3)cc1)CC2 (stereo not shown)", "pIC50": 6.49}
